- assaySystem: CYP3A4 (Homo sapiens)
- runConditions: female, human, plasma, oral, probe midazolam, t½, + 60 mg ASP8477 once daily (day 14); mean ± SD
endpointLabel: half-life (min)
Numbers only here, please. The scale is min.

Reported half-life for `Cc1ncc2n1-c1ccc(Cl)cc1C(c1ccccc1F)=NC2` : what is it?
306

====

- assaySystem: UniProt:P08684
- runConditions: female, human, plasma, oral, probe midazolam, t½, + 20 mg ASP8477 once daily (day 7); mean ± SD
endpointLabel: half-life

Consider the molecule shown here: `Cc1ncc2n1-c1ccc(Cl)cc1C(c1ccccc1F)=NC2` What is its recorded half-life?
5 h

====

- assaySystem: CYP2C9 (Homo sapiens, UniProt P11712)
- Sequence (P11712 whole entry): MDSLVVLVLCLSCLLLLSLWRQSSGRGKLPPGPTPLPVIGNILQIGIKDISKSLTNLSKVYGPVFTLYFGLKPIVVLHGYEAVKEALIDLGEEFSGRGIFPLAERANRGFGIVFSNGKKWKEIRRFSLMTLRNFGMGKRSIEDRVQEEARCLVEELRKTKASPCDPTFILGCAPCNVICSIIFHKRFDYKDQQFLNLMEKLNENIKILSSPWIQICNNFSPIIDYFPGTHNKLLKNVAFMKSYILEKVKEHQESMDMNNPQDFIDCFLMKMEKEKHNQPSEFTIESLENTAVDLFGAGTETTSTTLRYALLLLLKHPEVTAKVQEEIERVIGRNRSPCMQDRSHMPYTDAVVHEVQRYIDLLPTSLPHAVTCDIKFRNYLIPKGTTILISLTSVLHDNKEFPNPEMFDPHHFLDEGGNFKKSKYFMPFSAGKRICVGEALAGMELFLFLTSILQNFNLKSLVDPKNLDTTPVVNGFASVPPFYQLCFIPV
- assaySummary: Inje cocktail DDI study: losartan and EXP‐3174 PK, assessment of CYP2C9 activity
- runConditions: female, human, plasma, oral, AUCinf, + 60 mg ASP8477 once daily (day 14); mean ± SD
So I've got a bunch of compounds here, and I need their AUC(0-inf) values.
Express your answer in µg·h/mL, writing the number without its unit.

Hello, I am looking for reported AUC(0-inf) with CYP2C9 (Homo sapiens, UniProt P11712) for CCCCc1nc(Cl)c(CO)n1Cc1ccc(-c2ccccc2-c2nn[nH]n2)cc1 [Losartan, losartan, reference compound] . Could you help?
0.32

What about `CCCCc1nc(Cl)c(C(=O)O)n1Cc1ccc(-c2ccccc2-c2nn[nH]n2)cc1` ?
0.96

====

- assaySummary: ASP8477 steady‐state plasma PK in the cocktail study
- Type: in vivo, human
- runConditions: female, human, plasma, oral, 20 mg
endpointLabel: Cmax (ng/mL)
Report the value in ng/mL with no unit label.

GET /values?readout=Cmax&item= O=C(Nc1ccccc1)C1CCN(C(=O)Oc2cccnc2)CC1 [ASP8477]
400

====

- assaySystem: CYP2C9 (Homo sapiens)
- assaySummary: Inje cocktail DDI study: losartan and EXP‐3174 PK, assessment of CYP2C9 activity
- runConditions: female, human, plasma, oral, AUCinf, + 100 mg ASP8477 once daily (day 23); mean ± SD
Field: AUC(0-inf). Provide a value for each of the compounds that follow.
The figure you give is taken to be in ng·h/mL; do not add the unit.

What AUC(0-inf) appears in the records for this compound with CYP2C9 (Homo sapiens)? CCCCc1nc(Cl)c(CO)n1Cc1ccc(-c2ccccc2-c2nn[nH]n2)cc1 [Losartan, losartan, reference compound]
410

Queued: CCCCc1nc(Cl)c(C(=O)O)n1Cc1ccc(-c2ccccc2-c2nn[nH]n2)cc1 [EXP‐3174, losartan acid]
780

====

- assaySummary: ASP8477 steady‐state plasma PK in the cocktail study
- Type: in vivo, human
- runConditions: female, human, plasma, oral, 100 mg
endpointLabel: Cmax (ng/mL)
Use ng/mL as the unit, but write only the number.

What does the record list as Cmax for `O=C(Nc1ccccc1)C1CCN(C(=O)Oc2cccnc2)CC1` ?
4200

====

Give AUC(0-inf) for every item shown.
- assaySystem: UniProt:P10635
- runConditions: female, human, plasma, oral, probe dextromethorphan, AUCinf, + 100 mg ASP8477 once daily (day 23); mean ± SD
// units = ng·h/mL; emit number, no label

Report AUC(0-inf) for COc1ccc2c(c1)[C@]13CCCC[C@@H]1[C@H](C2)N(C)CC3 [Dextromethorphan, dextromethorphan, reference compound] please.
65

One more molecule: `CN1CC[C@@]23CCCC[C@@H]2[C@@H]1Cc1ccc(O)cc13`
3000

====

- assaySystem: CYP3A4 (Homo sapiens, UniProt P08684)
- Sequence (P08684 whole entry): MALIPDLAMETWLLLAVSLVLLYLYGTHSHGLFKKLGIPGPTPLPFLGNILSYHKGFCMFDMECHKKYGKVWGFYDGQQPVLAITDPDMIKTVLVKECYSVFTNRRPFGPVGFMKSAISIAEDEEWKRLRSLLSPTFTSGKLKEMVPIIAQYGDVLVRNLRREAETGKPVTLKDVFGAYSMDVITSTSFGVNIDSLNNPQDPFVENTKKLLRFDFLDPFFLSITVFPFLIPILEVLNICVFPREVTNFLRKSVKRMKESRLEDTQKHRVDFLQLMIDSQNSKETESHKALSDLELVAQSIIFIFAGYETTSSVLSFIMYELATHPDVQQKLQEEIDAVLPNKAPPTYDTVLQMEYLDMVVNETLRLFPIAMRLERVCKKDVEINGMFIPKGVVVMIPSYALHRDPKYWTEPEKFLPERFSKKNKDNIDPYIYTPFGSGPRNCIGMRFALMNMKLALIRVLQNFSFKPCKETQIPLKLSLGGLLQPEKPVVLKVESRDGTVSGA
- runConditions: female, human, plasma, oral, probe midazolam, AUCinf, + 60 mg ASP8477 once daily (day 14); mean ± SD
endpointLabel: AUC(0-inf)

Please look up its AUC(0-inf): Cc1ncc2n1-c1ccc(Cl)cc1C(c1ccccc1F)=NC2 [Midazolam, midazolam]
49 ng·h/mL

====

Please go through the items and note down their Cmax.
- assaySystem: CYP2C9 (Homo sapiens, UniProt P11712)
- assaySummary: Inje cocktail DDI study: losartan and EXP‐3174 PK, assessment of CYP2C9 activity
- runConditions: female, human, plasma, oral, Cmax, + 20 mg ASP8477 once daily (day 7); mean ± SD
Give your result in ng/mL as a bare value.

Which Cmax is reported for this compound? CCCCc1nc(Cl)c(C(=O)O)n1Cc1ccc(-c2ccccc2-c2nn[nH]n2)cc1 [EXP‐3174, losartan acid]
96

Now give it for CCCCc1nc(Cl)c(CO)n1Cc1ccc(-c2ccccc2-c2nn[nH]n2)cc1 [Losartan, losartan, reference compound] too.
78

====

Please respond with reported Cmax for every item in the list.
- assaySystem: CYP2D6 (Homo sapiens, UniProt P10635)
- Sequence (P10635 whole entry): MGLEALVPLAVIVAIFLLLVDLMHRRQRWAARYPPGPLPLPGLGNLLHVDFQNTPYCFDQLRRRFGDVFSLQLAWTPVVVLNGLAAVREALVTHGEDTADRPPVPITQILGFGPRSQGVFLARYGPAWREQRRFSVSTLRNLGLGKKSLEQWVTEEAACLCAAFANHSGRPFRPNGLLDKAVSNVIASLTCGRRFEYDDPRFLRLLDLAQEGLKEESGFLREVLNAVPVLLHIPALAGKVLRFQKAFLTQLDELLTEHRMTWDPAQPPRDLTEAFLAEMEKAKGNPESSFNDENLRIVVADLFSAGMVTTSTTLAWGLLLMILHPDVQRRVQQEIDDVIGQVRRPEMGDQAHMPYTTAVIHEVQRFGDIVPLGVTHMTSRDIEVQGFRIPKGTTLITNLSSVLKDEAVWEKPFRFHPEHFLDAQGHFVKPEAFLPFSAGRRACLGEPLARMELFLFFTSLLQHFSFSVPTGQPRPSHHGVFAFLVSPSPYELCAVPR
- runConditions: female, human, plasma, oral, Cmax, + 20 mg ASP8477 once daily (day 7); mean ± SD

Reported Cmax for CYP2D6 (Homo sapiens, UniProt P10635), given COc1ccc2c(c1)[C@]13CCCC[C@@H]1[C@H](C2)N(C)CC3 [Dextromethorphan, dextromethorphan, reference compound] ?
1.8 ng/mL

// next record `CN1CC[C@@]23CCCC[C@@H]2[C@@H]1Cc1ccc(O)cc13`
470 ng/mL

====

- assaySystem: CYP2C19 (Homo sapiens, UniProt P33261)
- Sequence (P33261 whole entry): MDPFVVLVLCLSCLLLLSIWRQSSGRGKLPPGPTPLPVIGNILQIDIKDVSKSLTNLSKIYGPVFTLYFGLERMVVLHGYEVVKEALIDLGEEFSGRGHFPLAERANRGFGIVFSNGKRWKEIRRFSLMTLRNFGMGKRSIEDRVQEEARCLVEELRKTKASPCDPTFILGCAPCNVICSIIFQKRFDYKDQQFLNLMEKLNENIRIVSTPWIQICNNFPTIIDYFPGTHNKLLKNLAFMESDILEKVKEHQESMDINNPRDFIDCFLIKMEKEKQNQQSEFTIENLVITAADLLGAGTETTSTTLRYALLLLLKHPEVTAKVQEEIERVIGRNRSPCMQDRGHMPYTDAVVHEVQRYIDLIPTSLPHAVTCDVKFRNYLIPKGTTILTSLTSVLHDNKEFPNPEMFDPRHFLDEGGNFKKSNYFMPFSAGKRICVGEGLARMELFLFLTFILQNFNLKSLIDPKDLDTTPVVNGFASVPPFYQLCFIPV
- runConditions: female, human, plasma, oral, AUCinf, + 20 mg ASP8477 once daily (day 7); mean ± SD
endpointLabel: AUC(0-inf) (ng·h/mL)
All answers are understood in ng·h/mL, so give the number only.

Lab note: need AUC(0-inf) for COc1ccc2[nH]c([S+]([O-])Cc3ncc(C)c(OC)c3C)nc2c1 (stereo not shown) on CYP2C19 (Homo sapiens, UniProt P33261), anyone have it?
1200

====

- assaySystem: UniProt:P08684
- runConditions: female, human, plasma, oral, probe midazolam, tmax (median [min‐max]), + 20 mg ASP8477 once daily (day 7)
endpointLabel: Tmax (min)
Give the quantity in min, number only.

What value of Tmax on UniProt:P08684 does `Cc1ncc2n1-c1ccc(Cl)cc1C(c1ccccc1F)=NC2` have?
31.2

====

- assaySummary: ASP8477 steady‐state plasma PK in the cocktail study
- Type: in vivo, human
- runConditions: female, human, plasma, oral, 100 mg
endpointLabel: Tmax (h)
Hi! Could you send only the number? It should be in h, unit omitted.

Dear colleague, I am looking for the recorded Tmax of the following compound: `O=C(Nc1ccccc1)C1CCN(C(=O)Oc2cccnc2)CC1`
2

====

- assaySystem: CYP2D6 (Homo sapiens)
- runConditions: female, human, plasma, oral, tmax (median [min‐max]), cocktail alone (day 1)
endpointLabel: Tmax (h)
Give your result in h as a bare value.

Kindly state the measured Tmax obtained for `CN1CC[C@@]23CCCC[C@@H]2[C@@H]1Cc1ccc(O)cc13` with CYP2D6 (Homo sapiens).
2

Likewise for COc1ccc2c(c1)[C@]13CCCC[C@@H]1[C@H](C2)N(C)CC3 [Dextromethorphan, dextromethorphan, reference compound] ?
2

====

- assaySystem: CYP2C19 (Homo sapiens)
endpointLabel: Ki
Please state the value followed by its unit.

Consider the compound `O=C(Nc1ccccc1)C1CCN(C(=O)Oc2cccnc2)CC1` and give its measured Ki.
1000 nM

====

- assaySystem: CYP2C19 (Homo sapiens, UniProt P33261)
- runConditions: female, human, plasma, oral, Cmax, cocktail alone (day 1); mean ± SD
endpointLabel: Cmax (ng/mL)
The response must be a number in ng/mL with no trailing unit.

Field request: Cmax | item: COc1ccc2[nH]c([S+]([O-])Cc3ncc(C)c(OC)c3C)nc2c1 (stereo not shown)
320

====

For each of the compounds below, state its half-life.
- assaySystem: CYP2C9 (Homo sapiens, UniProt P11712)
- assaySummary: Inje cocktail DDI study: losartan and EXP‐3174 PK, assessment of CYP2C9 activity
- runConditions: female, human, plasma, oral, t½, + 20 mg ASP8477 once daily (day 7); mean ± SD
The answer should read as a number with its unit following.

What does the data say about its half-life? Entry: `CCCCc1nc(Cl)c(C(=O)O)n1Cc1ccc(-c2ccccc2-c2nn[nH]n2)cc1`
8.8 h

Also CCCCc1nc(Cl)c(CO)n1Cc1ccc(-c2ccccc2-c2nn[nH]n2)cc1 [Losartan, losartan, reference compound] ?
4 h

====

- assaySystem: CYP2D6 (Homo sapiens)
- runConditions: female, human, plasma, oral, probe dextromethorphan, AUCinf, + 60 mg ASP8477 once daily (day 14); mean ± SD
endpointLabel: AUC(0-inf) (ng·h/mL)
Hi! Could you send only the number? It should be in ng·h/mL, unit omitted.

For the molecule `CN1CC[C@@]23CCCC[C@@H]2[C@@H]1Cc1ccc(O)cc13` , what AUC(0-inf) is on record?
2700

// repeat for COc1ccc2c(c1)[C@]13CCCC[C@@H]1[C@H](C2)N(C)CC3 [Dextromethorphan, dextromethorphan, reference compound] and report
39

====

- assaySystem: CYP3A4 (Homo sapiens)
- runConditions: female, human, plasma, oral, probe midazolam, AUCinf, + 20 mg ASP8477 once daily (day 7); mean ± SD
endpointLabel: AUC(0-inf) (ng·h/mL)
Use ng·h/mL as the unit, but write only the number.

Please look up its AUC(0-inf): `Cc1ncc2n1-c1ccc(Cl)cc1C(c1ccccc1F)=NC2`
38
